B1: C19orf51 (parent)
chain: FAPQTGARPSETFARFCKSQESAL

Variants of: B1
Experiment: protein stability index of a GFP-peptide fusion (GPS, HEK-293T) (PSI 1-6); higher = more stable;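 also: lentivirally expressed fusions sorted by FACS into six bins by GFP to DsRed ratio, PSI derived from sequencing read proportions per bin multiplied by bin number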
Conditions: c terminus: a fixed tail appended
Each entry below carries its reported protein stability index.
Answer as a number with no unit attached.

Q: Please report the measured protein stability index for A2F
A: 1.88

Q: Give the value of protein stability index reported for the following: A2W
A: 2.02

Q: Provide one value: measured protein stability index of P3D
A: 2.79

Q: Hello, please tell me recorded protein stability index for this one: K18C
A: 2.44

Q: Note down protein stability index recorded for G6Y
A: 1.86

Q: Please indicate protein stability index recorded for A14T
A: 2.09

Further cases:
Q: Give protein stability index for R8V
A: 2.1

Q: Dear colleague, please send me the reported protein stability index for E11L when you can.
A: 2.27

Q: Fill in protein stability index for record A7Q
A: 1.31

Q: Supply recorded protein stability index for S10G here.
A: 2.46

Q: Given A2Y , respond with its protein stability index.
A: 2.59

Q: Could you please provide reported protein stability index for Q4P ? Thanks!
A: 1.28

Q: For K18N , write its protein stability index.
A: 1.3

Q: Specify reported protein stability index for the variant shown: C17I
A: 2.98

Q: Tell me its protein stability index given Q20N as the entry.
A: 1.76

Q: State its protein stability index: E21G
A: 3

Q: Provide measured protein stability index value, entry: F1M
A: 3.59

Q: Kindly indicate its recorded protein stability index. Item: P9D
A: 1.23

Q: # return recorded protein stability index for entry A14D
A: 1.69
